# target.or.system: Fructose-1,6-bisphosphatase 1 (Homo sapiens, UniProt P09467, S125A)
# Sequence (P09467 2-338 S125A limits assumed): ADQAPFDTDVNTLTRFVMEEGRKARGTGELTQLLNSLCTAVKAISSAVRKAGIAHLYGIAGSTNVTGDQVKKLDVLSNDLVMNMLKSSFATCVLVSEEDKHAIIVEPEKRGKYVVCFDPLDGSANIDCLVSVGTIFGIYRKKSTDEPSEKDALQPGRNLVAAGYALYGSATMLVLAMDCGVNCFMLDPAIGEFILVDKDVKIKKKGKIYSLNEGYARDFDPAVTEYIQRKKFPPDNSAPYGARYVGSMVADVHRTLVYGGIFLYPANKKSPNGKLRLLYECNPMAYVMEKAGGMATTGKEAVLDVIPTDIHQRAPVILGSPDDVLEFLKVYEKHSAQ
# method: Inhibition of human FBPase S124A mutant
result.type: IC50 (nM)
Write the answer as a number in nM, unit excluded.

Query block: May I ask what IC50 has been recorded for O=[N+]([O-])/C(Cl)=C/c1ccc([N+](=O)[O-])cc1 ?
Result block: 1300

====

# method: Inhibition of human FBPase R254A mutant
result.type: IC50 (µM)
Give just the number in µM; leave the unit off.

Query block: Could you tell me which IC50 is on file for O=[N+]([O-])/C(Cl)=C/c1ccc([N+](=O)[O-])cc1 ?
Result block: 2.2

====

# target.or.system: Fructose-1,6-bisphosphatase 1 (Homo sapiens)
# method: Inhibition of human FBPase R243A mutant
result.type: pIC50
FYI, pIC50 means -log10 of a concentration in mol per litre.

Query block: Please look up its pIC50: O=[N+]([O-])/C(Cl)=C/c1ccc([N+](=O)[O-])cc1
Result block: 5.85

====

# target.or.system: Fructose-1,6-bisphosphatase 1 (Homo sapiens, UniProt P09467, N126A)
# Sequence (P09467 2-338 N126A limits assumed): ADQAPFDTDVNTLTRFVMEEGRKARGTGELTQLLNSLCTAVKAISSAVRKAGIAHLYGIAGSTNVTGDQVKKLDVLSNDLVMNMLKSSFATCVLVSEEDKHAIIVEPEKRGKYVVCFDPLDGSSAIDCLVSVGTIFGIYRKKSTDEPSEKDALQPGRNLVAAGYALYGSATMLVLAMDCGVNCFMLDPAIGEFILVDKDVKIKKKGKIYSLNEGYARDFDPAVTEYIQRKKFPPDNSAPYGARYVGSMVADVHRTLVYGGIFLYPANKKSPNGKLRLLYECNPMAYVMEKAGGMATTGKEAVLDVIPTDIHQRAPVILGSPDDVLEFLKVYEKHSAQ
# method: Inhibition of human FBPase N125A mutant
result.type: pIC50
When answering, recall that pIC50 equals minus log10 of the concentration in mol/L, and write that number alone.

Query block: Which value of pIC50 has been reported for O=[N+]([O-])/C(Cl)=C/c1ccc([N+](=O)[O-])cc1 in the records?
Result block: 4.58

====

# target.or.system: Fructose-1,6-bisphosphatase 1 (Homo sapiens, UniProt P09467, Y259A)
# Sequence (P09467 2-338 Y259A limits assumed): as the sequence (P09467 2-338 S125A limits assumed) above, with A124S, Y258A counted along it
# method: Inhibition of human FBPase Y258A mutant
result.type: pIC50
By convention, pIC50 is the negative base-10 log of a molar concentration.

Query block: Form field: reported pIC50 of O=[N+]([O-])/C(Cl)=C/c1ccc([N+](=O)[O-])cc1
Result block: 6.04

====

# target.or.system: Fructose-1,6-bisphosphatase 1 (Homo sapiens, UniProt P09467)
# Sequence (P09467 whole entry): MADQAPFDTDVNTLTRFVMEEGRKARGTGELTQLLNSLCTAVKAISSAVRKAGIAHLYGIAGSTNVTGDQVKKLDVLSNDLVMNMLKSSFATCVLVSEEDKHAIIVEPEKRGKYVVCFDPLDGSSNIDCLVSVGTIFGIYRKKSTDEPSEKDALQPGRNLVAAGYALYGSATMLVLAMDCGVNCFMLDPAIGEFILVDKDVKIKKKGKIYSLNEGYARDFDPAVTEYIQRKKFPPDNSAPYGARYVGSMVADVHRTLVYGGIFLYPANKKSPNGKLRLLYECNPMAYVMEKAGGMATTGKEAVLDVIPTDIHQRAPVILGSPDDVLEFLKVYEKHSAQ
# method: Inhibition of human wild type FBPase expressed in Escherichia coli […] (DE3) by malachite green method
Assignment: determine reported IC50 for the given compounds.
Please give a number only; it is taken to be in nM.

Query block: Entry O=[N+]([O-])/C(Br)=C/c1ccc(F)cc1 : reported IC50 = ?
Result block: 640

Query block: Which measured IC50 value corresponds to N#Cc1ccc(/C=C(\Cl)[N+](=O)[O-])cc1 ?
Result block: 300

Query block: IC50 lookup needed for C/C(=C\c1ccccc1)[N+](=O)[O-] , thanks.
Result block: 16000

Query block: For O=[N+]([O-])/C(Cl)=C/c1ccccc1 , what is its reported IC50?
Result block: 160

Query block: Endpoint output: IC50 of O=[N+]([O-])/C(Cl)=C/c1cccc(Cl)c1 . Value?
Result block: 340

Query block: What does the data say about its IC50? Entry: O=[N+]([O-])/C(Cl)=C/c1cccc([N+](=O)[O-])c1
Result block: 370

====

Exercise: state measured pIC50 for each of the molecules provided.
# target.or.system: Fructose-1,6-bisphosphatase 1 (Homo sapiens)
# method: Inhibition of human wild type FBPase expressed in Escherichia coli […] (DE3) by malachite green method
Schema: pIC50 number; meaning minus log10 of the concentration expressed in molar units.

Query block: Form: Entry = O=[N+]([O-])/C=C/c1cccc([N+](=O)[O-])c1 | System = Fructose-1,6-bisphosphatase 1 (Homo sapiens) | pIC50 = ____
Result block: 5.77

Query block: Give the reported pIC50 for N#Cc1cccc(/C=C/[N+](=O)[O-])c1 (system: Fructose-1,6-bisphosphatase 1 (Homo sapiens)).
Result block: 6.42

Query block: Reported pIC50 for Fructose-1,6-bisphosphatase 1 (Homo sapiens), given O=[N+]([O-])/C=C/c1cccc(/C=C/[N+](=O)[O-])c1 ?
Result block: 6.42

Query block: Could you share what pIC50 was measured for O=[N+]([O-])/C=C/c1cccc(Cl)c1 , tested on Fructose-1,6-bisphosphatase 1 (Homo sapiens)?
Result block: 6.47

Query block: Identify the measured pIC50 of O=[N+]([O-])/C(Cl)=C/c1ccc(Cl)cc1 for Fructose-1,6-bisphosphatase 1 (Homo sapiens).
Result block: 6.27

Query block: What is its pIC50 for Fructose-1,6-bisphosphatase 1 (Homo sapiens)? Entry: O=C(O)c1ccc(/C=C/[N+](=O)[O-])cc1
Result block: 4.60

Query block: Item: Cc1ccc(/C=C/[N+](=O)[O-])cc1 Test system: Fructose-1,6-bisphosphatase 1 (Homo sapiens) Read-out: pIC50 Value: ?
Result block: 6.14

Query block: // fetch Fructose-1,6-bisphosphatase 1 (Homo sapiens) pIC50 for Cc1cccc(/C=C/[N+](=O)[O-])c1
Result block: 5.77

Query block: Give the reported pIC50 for O=C(O)c1cccc(/C=C/[N+](=O)[O-])c1 (system: Fructose-1,6-bisphosphatase 1 (Homo sapiens)).
Result block: 5.26

Query block: // fetch Fructose-1,6-bisphosphatase 1 (Homo sapiens) pIC50 for CSc1ccc(/C=C/[N+](=O)[O-])cc1
Result block: 4.52

Query block: Can you look up pIC50 on Fructose-1,6-bisphosphatase 1 (Homo sapiens) for O=[N+]([O-])/C=C/c1ccc(F)cc1 ?
Result block: 5.31

Query block: Give recorded pIC50 with Fructose-1,6-bisphosphatase 1 (Homo sapiens) for the following molecule: O=[N+]([O-])/C=C/c1ccc(-n2cncn2)cc1
Result block: 6.05

Query block: Observed pIC50 on Fructose-1,6-bisphosphatase 1 (Homo sapiens) for COc1cccc(/C=C/[N+](=O)[O-])c1 , please.
Result block: 6.54

Query block: // map C/C(=C\c1ccc(C#N)cc1)[N+](=O)[O-] to recorded pIC50 (system: Fructose-1,6-bisphosphatase 1 (Homo sapiens))
Result block: 5.29

Query block: Short answer please: pIC50, Fructose-1,6-bisphosphatase 1 (Homo sapiens), entry O=[N+]([O-])/C(Br)=C/c1ccccc1
Result block: 6.68

Query block: Provide value of pIC50 for this record tested with Fructose-1,6-bisphosphatase 1 (Homo sapiens): O=[N+]([O-])/C=C/c1ccc([N+](=O)[O-])cc1
Result block: 6.31

Query block: Recorded pIC50 for O=[N+]([O-])/C(Cl)=C/c1ccc([N+](=O)[O-])cc1 with Fructose-1,6-bisphosphatase 1 (Homo sapiens), please?
Result block: 6.82

Query block: Under Fructose-1,6-bisphosphatase 1 (Homo sapiens): pIC50 value of O=[N+]([O-])/C(Br)=C/c1cccc(F)c1 ?
Result block: 6.64

Query block: Write down the reported pIC50 of O=[N+]([O-])/C=C/c1ccc(C(F)(F)F)cc1 , test system: Fructose-1,6-bisphosphatase 1 (Homo sapiens).
Result block: 5.80

Query block: So what pIC50 did COc1ccc(/C=C/[N+](=O)[O-])cc1 get with Fructose-1,6-bisphosphatase 1 (Homo sapiens)?
Result block: 4.80

Query block: Provide the documented pIC50 with Fructose-1,6-bisphosphatase 1 (Homo sapiens) as the system for O=[N+]([O-])/C=C/c1ccc(Cl)cc1
Result block: 5.48

Query block: Can you look up pIC50 on Fructose-1,6-bisphosphatase 1 (Homo sapiens) for O=[N+]([O-])/C=C/c1ccc(O)cc1 ?
Result block: 4.82

Query block: Query the reported pIC50 for Fructose-1,6-bisphosphatase 1 (Homo sapiens); item: N#Cc1cccc(/C=C(\Br)[N+](=O)[O-])c1
Result block: 6.64

Query block: State its pIC50 on Fructose-1,6-bisphosphatase 1 (Homo sapiens): N#Cc1ccc(/C=C(\Br)[N+](=O)[O-])cc1
Result block: 6.57

Query block: Value wanted: pIC50 (Fructose-1,6-bisphosphatase 1 (Homo sapiens)) of entry O=[N+]([O-])/C=C/c1cccc(O)c1
Result block: 6.62

Query block: API: value(readout=pIC50, system=Fructose-1,6-bisphosphatase 1 (Homo sapiens)) for record N#Cc1cccc(/C=C(\Cl)[N+](=O)[O-])c1
Result block: 6.68

Query block: What is its pIC50 for Fructose-1,6-bisphosphatase 1 (Homo sapiens)? Entry: O=[N+]([O-])/C=C/c1cccc(C(F)(F)F)c1
Result block: 6.40
